- Test system: Mus musculus
- procedure-text: Edema ratio expressed as weight of edematous leg to 100/weight of normal leg in mice upon injection of 300 uM compound pre-incubated with 1 ug phospholipase A2 of Naja melanoleuca at 37 degree C for 1 h into mice foot pads
- Format: functional
# Ratio annotations
attribute-measured: Ratio

smiles_text=O=C(Oc1ccc(Cl)cc1C(=O)c1cccc(Cl)c1Cl)c1ccccc1 reported_measurement=104
smiles_text=Cc1ccc(OC(=O)c2ccccc2C)c(C(=O)c2ccccc2C)c1 reported_measurement=102
smiles_text=Cc1ccc(C(=O)Oc2ccc(C)cc2C(=O)c2ccc(C)cc2)cc1 reported_measurement=103
smiles_text=Cc1ccc(OC(=O)c2cccc(Cl)c2)c(C(=O)c2cccc(Cl)c2)c1 reported_measurement=101

---

- procedure-text: In vitro Inhibitory concentration against phospholipase A2 activity of synovial fluid
- Set-up: species or system Homo sapiens
Doc: threshold 90 µM (exclusive). Items with IC50 beneath it return 1 (yes); others return 0 (no).

smiles_text=Cc1ccc(OC(=O)c2cccc(Cl)c2)c(C(=O)c2cccc(Cl)c2)c1 classification="1 (yes)"
smiles_text=Cc1ccc(OC(=O)c2ccccc2C)c(C(=O)c2ccccc2C)c1 classification="1 (yes)"
smiles_text=Cc1cc(C(=O)c2cccc(Cl)c2Cl)ccc1OC(=O)c1ccccc1 classification="0 (no)"
smiles_text=Cc1ccc(C(=O)Oc2ccc(C)cc2C(=O)c2ccc(C)cc2)cc1 classification="0 (no)"
smiles_text=Cc1ccc(OC(=O)c2ccccc2)c(C(=O)c2ccccc2)c1 classification="1 (yes)"
smiles_text=O=C(Oc1ccc(Cl)cc1C(=O)c1cccc(Cl)c1Cl)c1ccccc1 classification="1 (yes)"
smiles_text=Cc1ccc(C(=O)Oc2ccc(C(=O)c3ccccc3C)cc2C)cc1 classification="1 (yes)"

---

- System: Naja naja
- procedure-text: Percent inhibition of hyaluronidase from Naja naja naja venom
- Design: concentration or dose not given beside the values
- experimental-context: concentration not given here
Note to self: values exactly at 60% are 1. So inhibition at or above 60% is 1, below is 0.

smiles_text=Cc1ccc(C(=O)Oc2ccc(C(=O)c3ccccc3C)cc2C)cc1 classification=0
smiles_text=Cc1ccc(OC(=O)c2ccccc2)c(C(=O)c2ccccc2)c1 classification=0
smiles_text=O=C(Oc1ccc(Cl)cc1C(=O)c1cccc(Cl)c1Cl)c1ccccc1 classification=1
smiles_text=Cc1ccc(C(=O)Oc2ccc(C)cc2C(=O)c2ccc(C)cc2)cc1 classification=1
smiles_text=Cc1ccc(OC(=O)c2cccc(Cl)c2)c(C(=O)c2cccc(Cl)c2)c1 classification=1

---

Measurement record for UniProt:Q7T3S7; quantity recorded: pIC50.
Sequence (Q7T3S7 17-136 limits assumed): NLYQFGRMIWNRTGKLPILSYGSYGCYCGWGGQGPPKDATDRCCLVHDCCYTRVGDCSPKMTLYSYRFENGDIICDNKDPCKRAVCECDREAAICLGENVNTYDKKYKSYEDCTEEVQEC
pIC50: −log10 of the molar value.
attribute-measured: pIC50

smiles_text=Cc1ccc(OC(=O)c2ccccc2)c(C(=O)c2ccccc2)c1 attribute_measured=pIC50 reported_measurement=4.03
smiles_text=Cc1cc(C(=O)c2cccc(Cl)c2Cl)ccc1OC(=O)c1ccccc1 attribute_measured=pIC50 reported_measurement=3.95
smiles_text=C[C@H]1[C@H](C)CC[C@]2(C(=O)O)CC[C@]3(C)C(=CC[C@@H]4[C@@]5(C)CC[C@H](O)C(C)(C)[C@@H]5CC[C@]43C)[C@H]12 attribute_measured=pIC50 reported_measurement=5.64
smiles_text=Cc1ccc(OC(=O)c2cccc(Cl)c2)c(C(=O)c2cccc(Cl)c2)c1 attribute_measured=pIC50 reported_measurement=5.64
smiles_text=Cc1ccc(C(=O)Oc2ccc(C(=O)c3ccccc3C)cc2C)cc1 attribute_measured=pIC50 reported_measurement=4.06
smiles_text=Cc1ccc(OC(=O)c2ccccc2C)c(C(=O)c2ccccc2C)c1 attribute_measured=pIC50 reported_measurement=3.98
smiles_text=Cc1ccc(C(=O)Oc2ccc(C)cc2C(=O)c2ccc(C)cc2)cc1 attribute_measured=pIC50 reported_measurement=4.02
smiles_text=O=C(Oc1ccc(Cl)cc1C(=O)c1cccc(Cl)c1Cl)c1ccccc1 attribute_measured=pIC50 reported_measurement=4.40
